- target-or-system: laminin/nidogen binding (radioactively labeled nidogen to laminin P1-coated tubes)
- assay-method-text: coated-tube inhibition assay, sequential inhibition
- Set-up: species or system human
- condition: sequential assay type; read-out: IC50% inhibition of laminin/nidogen binding
reported-property: IC50 (µM)
Answers are plain numbers, in µM.

DNIDPNAVGNLKCIYNTAGFYCDR [(2), peptide used for immunization]    20

Next item in the queue.
Report measured IC50; entry is DNIDPNAVGNL [(1), peptide used for immunization] 60

----------
- target-or-system: laminin/nidogen binding (radioactively labeled nidogen to laminin P1-coated tubes)
- assay-method-text: coated-tube inhibition assay, sequential inhibition
- Design: species or system human
- condition: in the assay described here, shortened incubation times; variant not stated; read-out: IC50%
reported-property: pIC50
Give bare numbers, as −log10 of the molar value.

System laminin/nidogen binding (radioactively labeled nidogen to laminin P1-coated tubes). Read-out pIC50. Item DNIDPNAVGNL [(1), peptide used for immunization] . Report value. 4.22

----------
- target-or-system: laminin/nidogen binding (radioactively labeled nidogen to laminin P1-coated tubes)
- assay-method-text: coated-tube inhibition assay, simultaneous inhibition
- Set-up: species or system human
- condition: simultaneous assay type
- Text: The inhibitory activity of the affinity-purified antibodies can be identified by means of a coated-tube assay which measures the binding of radioactively labeled nidogen to (human placental) laminin P1-coated tubes in the presence of the antibodies. […]
- Sequence (P11047 773-934 limits assumed): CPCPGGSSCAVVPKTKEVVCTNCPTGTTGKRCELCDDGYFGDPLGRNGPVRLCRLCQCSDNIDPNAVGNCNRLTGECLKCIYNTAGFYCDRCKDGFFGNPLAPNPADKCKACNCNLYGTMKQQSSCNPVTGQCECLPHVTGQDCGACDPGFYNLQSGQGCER
- Sequence (P14543 29-1247, further chain): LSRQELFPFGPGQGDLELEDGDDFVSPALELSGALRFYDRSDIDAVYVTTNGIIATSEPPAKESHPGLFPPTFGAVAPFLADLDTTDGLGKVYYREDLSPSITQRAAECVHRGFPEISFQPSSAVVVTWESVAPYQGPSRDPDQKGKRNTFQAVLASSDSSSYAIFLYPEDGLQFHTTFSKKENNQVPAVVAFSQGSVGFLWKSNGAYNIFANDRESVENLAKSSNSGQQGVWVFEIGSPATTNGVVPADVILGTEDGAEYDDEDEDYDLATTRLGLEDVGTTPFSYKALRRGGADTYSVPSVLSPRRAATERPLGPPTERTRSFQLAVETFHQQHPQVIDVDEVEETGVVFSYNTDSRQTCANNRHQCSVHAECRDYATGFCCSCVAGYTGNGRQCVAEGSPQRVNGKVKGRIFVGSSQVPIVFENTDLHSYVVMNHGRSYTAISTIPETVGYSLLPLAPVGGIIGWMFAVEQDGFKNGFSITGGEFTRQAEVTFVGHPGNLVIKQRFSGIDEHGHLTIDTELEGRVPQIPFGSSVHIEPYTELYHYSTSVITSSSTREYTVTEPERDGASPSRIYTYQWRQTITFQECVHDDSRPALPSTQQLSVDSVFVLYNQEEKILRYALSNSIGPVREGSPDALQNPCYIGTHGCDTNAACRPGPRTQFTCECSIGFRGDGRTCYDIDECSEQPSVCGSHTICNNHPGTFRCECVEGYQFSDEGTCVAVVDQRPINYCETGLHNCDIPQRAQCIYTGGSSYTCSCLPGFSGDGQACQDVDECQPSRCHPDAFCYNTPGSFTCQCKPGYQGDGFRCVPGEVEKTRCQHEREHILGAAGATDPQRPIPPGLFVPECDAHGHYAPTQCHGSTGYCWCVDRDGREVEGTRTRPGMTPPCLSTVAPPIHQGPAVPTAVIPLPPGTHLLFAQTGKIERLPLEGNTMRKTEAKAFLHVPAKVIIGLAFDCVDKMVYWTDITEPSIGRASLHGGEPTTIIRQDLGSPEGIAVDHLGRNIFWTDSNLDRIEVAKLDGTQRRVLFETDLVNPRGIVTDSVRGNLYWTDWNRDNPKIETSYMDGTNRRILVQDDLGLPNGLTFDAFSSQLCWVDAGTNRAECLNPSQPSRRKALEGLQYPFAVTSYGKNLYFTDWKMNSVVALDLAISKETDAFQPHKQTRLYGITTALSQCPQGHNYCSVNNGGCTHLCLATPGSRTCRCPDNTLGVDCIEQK
Please respond with reported pIC50 for every item in the list.
Answers are plain numbers, as −log10 of the molar value.

DNIDPNAVGNL [(1), peptide used for immunization]    4.22

Next item in the queue.
Report measured pIC50; entry is DNIDPNAVGNLKCIYNTAGFYCDR [(2), peptide used for immunization] 4.70
